Source listed as paper PMC7034990.

Target: UniProtKB P08183
Sequence (P08183 whole entry, species assumed): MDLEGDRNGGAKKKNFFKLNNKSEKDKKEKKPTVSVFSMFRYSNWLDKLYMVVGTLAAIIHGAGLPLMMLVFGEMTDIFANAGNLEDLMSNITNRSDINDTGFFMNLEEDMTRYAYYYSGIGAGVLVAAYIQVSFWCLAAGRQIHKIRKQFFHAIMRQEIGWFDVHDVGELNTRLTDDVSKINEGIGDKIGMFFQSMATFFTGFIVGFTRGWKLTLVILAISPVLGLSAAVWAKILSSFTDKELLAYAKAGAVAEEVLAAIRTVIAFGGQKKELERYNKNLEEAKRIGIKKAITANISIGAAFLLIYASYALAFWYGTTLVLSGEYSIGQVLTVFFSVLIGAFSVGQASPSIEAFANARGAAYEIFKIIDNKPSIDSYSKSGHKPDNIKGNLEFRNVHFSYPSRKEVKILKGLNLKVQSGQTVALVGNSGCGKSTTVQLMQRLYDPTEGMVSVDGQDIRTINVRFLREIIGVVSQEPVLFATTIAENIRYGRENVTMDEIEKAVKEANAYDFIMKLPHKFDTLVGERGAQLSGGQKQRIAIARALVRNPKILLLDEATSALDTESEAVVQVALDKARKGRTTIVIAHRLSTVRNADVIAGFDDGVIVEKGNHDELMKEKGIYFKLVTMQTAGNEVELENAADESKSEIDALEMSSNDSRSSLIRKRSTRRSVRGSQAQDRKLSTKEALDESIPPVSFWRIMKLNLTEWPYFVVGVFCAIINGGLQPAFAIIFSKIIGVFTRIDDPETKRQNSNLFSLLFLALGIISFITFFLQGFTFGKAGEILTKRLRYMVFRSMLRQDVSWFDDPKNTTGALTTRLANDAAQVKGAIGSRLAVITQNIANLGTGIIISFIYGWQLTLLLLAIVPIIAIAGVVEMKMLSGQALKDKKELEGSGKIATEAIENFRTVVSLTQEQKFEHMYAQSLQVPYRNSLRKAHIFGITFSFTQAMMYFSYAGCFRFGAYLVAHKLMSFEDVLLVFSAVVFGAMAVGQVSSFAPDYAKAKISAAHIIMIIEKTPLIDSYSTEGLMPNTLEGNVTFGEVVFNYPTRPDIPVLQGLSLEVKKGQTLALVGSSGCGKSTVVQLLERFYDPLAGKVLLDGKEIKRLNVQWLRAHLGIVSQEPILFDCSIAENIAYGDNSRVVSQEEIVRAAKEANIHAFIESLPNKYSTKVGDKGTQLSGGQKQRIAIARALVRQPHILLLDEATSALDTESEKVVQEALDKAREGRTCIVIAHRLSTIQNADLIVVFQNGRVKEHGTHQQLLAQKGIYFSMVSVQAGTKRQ
Assay: ABC transporter inhibition, ABC-B1
Type: in vitro ADME
Readout Label: inhibition at 10 µM (%)

Molecule: CN(C(=O)c1cccc(-n2nc(C(F)(F)F)c3c2[C@@H](Oc2ccc(C(=O)O)cc2)CCC3)c1)c1ccc2c(c1)OC(F)(F)O2 [ARN23765]
Unit Of Measure: %
Reported Measurement: 13
